Tested on: PPARg:RXRa (NR concentration 180 nM, RXRa partner concentration 90 nM)
RUN_DESCRIPTION: PBM binding z-score (relative to random genomic background probes); higher = stronger binding; sequences stand for … in GC…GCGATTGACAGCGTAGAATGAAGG
REPORTED_ENDPOINT: PBM binding z-score
Respond numerically, and do not add a unit to the figure.

[
  {
    "ENTRY_SEQUENCE": "TGAATGAGGTTGAAGATCAGGGAACGTGGCGTCG",
    "SUBJECT_OF_TEST": "PPARg:RXRa (NR concentration 180 nM, RXRa partner concentration 90 nM)",
    "PBM binding z-score": 1.11
  },
  {
    "ENTRY_SEQUENCE": "CCAGACAGGTGAGAAGGTACCTCAGCCTCGATTA",
    "SUBJECT_OF_TEST": "PPARg:RXRa (NR concentration 180 nM, RXRa partner concentration 90 nM)",
    "PBM binding z-score": 0.408
  },
  {
    "ENTRY_SEQUENCE": "GGAACGACGGCAAAGTTGATAGCATCTGTCGACG",
    "SUBJECT_OF_TEST": "PPARg:RXRa (NR concentration 180 nM, RXRa partner concentration 90 nM)",
    "PBM binding z-score": 1.01
  }
]

### Prompt Look at this sequence and give its reported PBM binding z-score. ATATGTAGGTTAGTTGGGGTCATTCAGACTAGGC
### Response 5.44

### Prompt Now try ATCTCTAGGTAAGACTCAGTTCAGTGAAGAACGC .
### Response -0.0322

### Prompt Now try GTACCAAGGTGAATAGGTCGTAGATGAGTAGGCG .
### Response 1.82

### Prompt Now try TCTTGTAGATCAGCTGGTTAAGAAAGCTGGCCAA .
### Response -1.11

### Prompt Now try ACAGACAGGTGATGAAGGTACCTCAGGCTATCAT .
### Response 0.682

---

System: LXRb:RXRa (NR concentration 270 nM, RXRa partner concentration 90 nM)
RUN_DESCRIPTION: PBM binding z-score (relative to random genomic background probes); higher = stronger binding; sequences stand for … in GC…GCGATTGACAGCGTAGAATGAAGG
REPORTED_ENDPOINT: PBM binding z-score
Respond numerically, and do not add a unit to the figure.

Example cases with answers are listed next.
[
  {
    "ENTRY_SEQUENCE": "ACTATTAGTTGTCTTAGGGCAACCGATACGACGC",
    "REPORTED_ENDPOINT": "PBM binding z-score",
    "NUMBER": 0.0317
  },
  {
    "ENTRY_SEQUENCE": "ATCTCTAGGTAAAGATAGTTCAGCGAATGCAAAT",
    "REPORTED_ENDPOINT": "PBM binding z-score",
    "NUMBER": 0.836
  },
  {
    "ENTRY_SEQUENCE": "CCTGCTAGGTCATGGTCAGCTGATCTACAGTATG",
    "REPORTED_ENDPOINT": "PBM binding z-score",
    "NUMBER": 2.21
  },
  {
    "ENTRY_SEQUENCE": "CAAACTATGTCAAAGGTCAAAGTCGAGCCAACCA",
    "REPORTED_ENDPOINT": "PBM binding z-score",
    "NUMBER": 5.79
  },
  {
    "ENTRY_SEQUENCE": "CCTTACGGGTCACGAGGGTATAGCACGACGAGCG",
    "REPORTED_ENDPOINT": "PBM binding z-score",
    "NUMBER": 3.48
  },
  {
    "ENTRY_SEQUENCE": "ATCCCTAGGTAAGACTCAGTTCAGTGAAGAACGC",
    "REPORTED_ENDPOINT": "PBM binding z-score",
    "NUMBER": 0.29
  },
  {
    "ENTRY_SEQUENCE": "TCTATGAGTTGAAGGGCAACCGACGAGTCCGTTT",
    "REPORTED_ENDPOINT": "PBM binding z-score",
    "NUMBER": 0.405
  },
  {
    "ENTRY_SEQUENCE": "TCTTGTAGGTCAACAGGAGGTTAAGAAAGATCGA",
    "REPORTED_ENDPOINT": "PBM binding z-score",
    "NUMBER": 3.93
  }
]

### Prompt Look at this sequence and give its reported PBM binding z-score. TCTAGCAGGCAAGAGGGTCACTCAAGAGGTACGG
### Response 1.18

### Prompt Now try CGACCAAGGTCAATGCTAGGTCAGTGAAAGCATT .
### Response 3.95

The reported measurements were obtained from the supplement of paper PMC6555819.
